# target.of.assay: Cbl-b (36-427 aa truncated form, N-terminus Avi-tag) (Homo sapiens (Human))
# protocol.details: Cbl-b binding: TR-FRET displacement of BODIPY-FL probe
pIC50: −log10 of the molar value.
Entries and their pIC50

As a guide, the following entries are already answered.
{"molecule": "CCNc1cc(C2(Cc3nncn3C)COC2)cc(N2Cc3c(cc([C@H](CSC)N4CCC[C@H](C)C4)cc3C(F)(F)F)C2=O)n1 [Compound 141A]", "pIC50": "7.70 to 8.30"}
{"molecule": "CCSc1cc(C2(Cc3nncn3C)COC2)cc(N2Cc3c(cc(CN4CCC[C@H](C)C4)cc3C(F)(F)F)C2=O)n1", "pIC50": "7.70 to 8.30"}

q: So what pIC50 did C=CC(=O)NCc1cc(C2(Cc3nncn3C)COC2)cc(N2Cc3c(cc(CN4CCC[C@H](C)C4)cc3C(F)(F)F)C2=O)n1 get with Cbl-b (36-427 aa truncated form, N-terminus Avi-tag) (Homo sapiens (Human))?
a: 7.70 to 8.30

----------
// IC50 lookup, one value per entry
# target.of.assay: Cbl-b (36-427 aa truncated form, N-terminus Avi-tag) (Homo sapiens (Human))
# protocol.details: Cbl-b binding: TR-FRET displacement of BODIPY-FL probe

In the examples that follow, each entry is paired with its recorded IC50.
{"compound": "C#CCOCC(c1cc2c(c(C(F)(F)F)c1)CN(c1cccc(C3(c4nncn4C)CC(C)C3)c1)C2=O)N1CCC[C@H](C)C1 (stereo partly drawn) [Compound 151]", "IC50": "100 to 1000 nM"}
{"compound": "C=CC(=O)N1CCN(c2cc(C3(Cc4nncn4C)COC3)cc(N3Cc4c(cc(CN5CCC[C@H](C)C5)cc4C(F)(F)F)C3=O)n2)CC1 [Compound 121]", "IC50": "20 to 100 nM"}
{"compound": "Cn1cnnc1CC1(c2cc(NCCC#N)nc(N3Cc4c(cc(CN5CCC6(CC5)CC6CO)cc4C(F)(F)F)C3=O)c2)COC1 (stereo not drawn) [Compound 160]", "IC50": "1 to 5 nM"}
{"compound": "CC1CC(c2cc(NCCN=[N+]=[N-])nc(N3Cc4c(cc(CN5CCC[C@H](C)C5)cc4C(F)(F)F)C3=O)c2)(c2nncn2C)C1 (stereo partly drawn) [Compound 168]", "IC50": "20 to 100 nM"}
{"compound": "C[C@H]1CCCN(Cc2cc3c(c(C(F)(F)F)c2)CN(c2cc(C4(Cc5nncn5C)COC4)cc(NCCC#N)n2)C3=O)C1.O=CO [Compound 110, formic acid]", "IC50": "1 to 5 nM"}

Let us move to another entry and its IC50.
q: Using the record for Cn1cnnc1CC1(c2cc(NCCC#N)nc(N3Cc4c(cc(CN5CCN(c6ccccc6O)CC5)cc4C(F)(F)F)C3=O)c2)COC1 [Compound 184, trifluoroacetic acid] , report its IC50.
a: 5.01 to 20 nM

----------
# target.of.assay: Cbl-b (36-427 aa truncated form, N-terminus Avi-tag) (Homo sapiens (Human), UniProt Q13191)
# Sequence (Q13191 36-427): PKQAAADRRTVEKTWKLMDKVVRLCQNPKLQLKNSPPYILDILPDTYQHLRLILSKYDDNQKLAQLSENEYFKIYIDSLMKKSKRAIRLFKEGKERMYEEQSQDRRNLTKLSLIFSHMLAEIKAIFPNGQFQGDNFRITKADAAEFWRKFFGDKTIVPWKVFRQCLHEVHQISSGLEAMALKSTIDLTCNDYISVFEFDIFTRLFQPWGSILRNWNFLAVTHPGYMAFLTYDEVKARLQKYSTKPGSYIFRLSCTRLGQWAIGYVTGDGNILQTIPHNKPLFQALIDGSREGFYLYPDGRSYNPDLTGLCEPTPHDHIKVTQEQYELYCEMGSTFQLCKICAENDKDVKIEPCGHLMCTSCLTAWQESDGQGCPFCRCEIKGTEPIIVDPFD
# protocol.details: Cbl-b binding: TR-FRET displacement of BODIPY-FL probe
pIC50: −log10 of the molar value.
Parameter pIC50: see the listing below.

Examples with answers:
{"compound": "CCSc1cc(C2(Cc3nncn3C)COC2)cc(N2Cc3c(C(=O)O)cc(CN4CCC[C@H](C)C4)cc3C2=O)n1", "pIC50": "7.70 to 8.30"}
{"compound": "CCSc1cc(C2(Cc3nncn3C)COC2)cc(N2Cc3c(C=O)cc(CN4CCC[C@H](C)C4)cc3C2=O)n1", "pIC50": "7.70 to 8.30"}

Read the next record carefully.
q: Recorded pIC50 for CCSc1cc(C2(c3nncn3C)CC(C)C2)cc(N2Cc3c(cc(CN4CCC[C@H](C)C4)cc3C(F)(F)F)C2=O)n1 (stereo partly drawn) [Compound 113] , please?
a: 7.00 to 7.70

The values you see were collected from patent US20250304563A1.
